Item-by-item account of inhibition at 2 µM
# assayed target: human Cereblon WT GST-tagged protein (Homo sapiens, UniProt Q96SW2)
# Construct: purchased CISBIO 64BDCRBNPEH
# Sequence (Q96SW2 whole entry): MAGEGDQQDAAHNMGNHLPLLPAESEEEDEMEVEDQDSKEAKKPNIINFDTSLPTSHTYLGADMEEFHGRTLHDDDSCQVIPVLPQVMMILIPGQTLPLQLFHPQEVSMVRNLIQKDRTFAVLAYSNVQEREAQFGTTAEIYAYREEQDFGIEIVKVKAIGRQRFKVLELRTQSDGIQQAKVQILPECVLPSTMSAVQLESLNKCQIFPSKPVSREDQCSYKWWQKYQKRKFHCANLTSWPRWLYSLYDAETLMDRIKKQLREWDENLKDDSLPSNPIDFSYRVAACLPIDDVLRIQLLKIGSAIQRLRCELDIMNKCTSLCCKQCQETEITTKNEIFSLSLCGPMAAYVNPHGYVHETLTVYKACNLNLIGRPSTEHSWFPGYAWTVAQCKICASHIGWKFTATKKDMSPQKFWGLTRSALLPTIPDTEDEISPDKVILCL
# protocol text: CRBN-binding affinity, HTRF (CEREBLON BINDING kit)
# test parameters: read-out: Inhibition Rate at 2 µM (%)

molecule	assayed target	inhibition at 2 µM
O=C1CCC(N2Cc3cc(CN4CC=C(c5ncnc6sc7c(c56)CCCC7)CC4)ccc3C2=S)C(=O)N1 (centres unmarked) [GT-09324]	human Cereblon WT GST-tagged protein (Homo sapiens, UniProt Q96SW2)	80 to 100%
O=C1CCC(N2Cc3cc(CN4CCN(c5ccc(Cl)cn5)CC4)ccc3C2=S)C(=O)N1 (centres unmarked) [GT-09217]	human Cereblon WT GST-tagged protein (Homo sapiens, UniProt Q96SW2)	80 to 100%
O=C1CCC(N2Cc3c(CN4CCC(c5ccnc(Cl)c5Cl)CC4)cccc3C2=S)C(=O)N1 (centres unmarked) [GT-08458]	human Cereblon WT GST-tagged protein (Homo sapiens, UniProt Q96SW2)	80 to 100%
Cc1sc2ncnc(N3CCCN(Cc4cccc5c4CN(C4CCC(=O)NC4=O)C5=S)CC3)c2c1C (centres unmarked) [GT-08917]	human Cereblon WT GST-tagged protein (Homo sapiens, UniProt Q96SW2)	80 to 100%
O=C1CCC(N2Cc3c(CN4CCC(c5ccco5)CC4)cccc3C2=S)C(=O)N1 (centres unmarked) [GT-08310]	human Cereblon WT GST-tagged protein (Homo sapiens, UniProt Q96SW2)	60 to 80%
O=C1CCC(N2Cc3c(CN4CCN(C(c5ccccc5)c5cccnc5)CC4)cccc3C2=S)C(=O)N1 (centres unmarked) [GT-08193]	human Cereblon WT GST-tagged protein (Homo sapiens, UniProt Q96SW2)	53 to 60%
O=C1CCC(N2Cc3cc(CN4CCC(c5ncc6ccsc6n5)CC4)ccc3C2=S)C(=O)N1 (centres unmarked) [GT-09313]	human Cereblon WT GST-tagged protein (Homo sapiens, UniProt Q96SW2)	80 to 100%
O=C1CCC(N2Cc3c(CN4CC=C(c5cccs5)CC4)cccc3C2=S)C(=O)N1 (centres unmarked) [GT-08299]	human Cereblon WT GST-tagged protein (Homo sapiens, UniProt Q96SW2)	60 to 80%
O=C1CCC(N2Cc3cc(CN4CCC(c5ccsc5)CC4)ccc3C2=S)C(=O)N1 (centres unmarked) [GT-08324]	human Cereblon WT GST-tagged protein (Homo sapiens, UniProt Q96SW2)	80 to 100%
Cc1ccsc1C1CCN(Cc2ccc3c(c2)CN(C2CCC(=O)NC2=O)C3=S)CC1 (centres unmarked) [GT-08323]	human Cereblon WT GST-tagged protein (Homo sapiens, UniProt Q96SW2)	80 to 100%
Cc1nc(C2=CCN(Cc3ccc4c(c3)CN(C3CCC(=O)NC3=O)C4=S)CC2)c2c3c(sc2n1)CCCC3 (centres unmarked) [GT-09323]	human Cereblon WT GST-tagged protein (Homo sapiens, UniProt Q96SW2)	80 to 100%
O=C1CCC(N2Cc3c(CN4CCN(c5nccc(I)c5F)CC4)cccc3C2=S)C(=O)N1 (centres unmarked) [GT-08704]	human Cereblon WT GST-tagged protein (Homo sapiens, UniProt Q96SW2)	80 to 100%
O=C1CCC(N2Cc3cc(CN4CCC(c5ccc(Cl)cc5)CC4)ccc3C2=S)C(=O)N1 (centres unmarked) [GT-08619]	human Cereblon WT GST-tagged protein (Homo sapiens, UniProt Q96SW2)	80 to 100%
O=C1CCC(N2Cc3cc(CN4CCN(c5ccc(Cl)cc5Cl)CC4)ccc3C2=S)C(=O)N1 (centres unmarked) [GT-08604]	human Cereblon WT GST-tagged protein (Homo sapiens, UniProt Q96SW2)	60 to 80%
O=C1CCC(N2Cc3cc(CN4CCC(c5ccoc5)CC4)ccc3C2=S)C(=O)N1 (centres unmarked) [GT-08326]	human Cereblon WT GST-tagged protein (Homo sapiens, UniProt Q96SW2)	80 to 100%
Cc1ccc(C2CCN(Cc3cccc4c3CN(C3CCC(=O)NC3=O)C4=S)CC2)s1 (centres unmarked) [GT-08312]	human Cereblon WT GST-tagged protein (Homo sapiens, UniProt Q96SW2)	80 to 100%
O=C1CCC(N2Cc3c(CN4CC=C(c5ncnc6sc7c(c56)CCC7)CC4)cccc3C2=S)C(=O)N1 (centres unmarked) [GT-08963]	human Cereblon WT GST-tagged protein (Homo sapiens, UniProt Q96SW2)	80 to 100%

* * *

# System: Human multiple myeloma cell (MM.1S)
# protocol text: Tumor cell proliferation inhibition (CellTiter-Meiluncell luminescent cell viability assay)
# test parameters: MM.1S, 500 nM, 96 hours

compound	assayed target	Inhibition Rate at 500 nM (%)
O=C1CCC(N2Cc3cc(CN4C5CCC4CN(C(c4ccccc4)c4ccccc4)C5)ccc3C2=S)C(=O)N1 (stereo not drawn)	Human multiple myeloma cell (MM.1S)	la7
O=C1CCC(N2Cc3cc(CN4CCC(c5cccs5)CC4)ccc3C2=S)C(=O)N1 (stereo not drawn)	Human multiple myeloma cell (MM.1S)	la10
O=C1CCC(N2Cc3cc(CN4CCN(c5ccccc5Br)CC4)ccc3C2=S)C(=O)N1 (stereo not drawn)	Human multiple myeloma cell (MM.1S)	la8
O=C1CCC(N2Cc3cc(CN4CCN(c5ccccc5)CC4)ccc3C2=S)C(=O)N1 (stereo not drawn)	Human multiple myeloma cell (MM.1S)	la8
Cc1cc(N2CCN(Cc3ccc4c(c3)CN(C3CCC(=O)NC3=O)C4=S)CC2)cc(C)n1 (stereo not drawn)	Human multiple myeloma cell (MM.1S)	la7
O=C1CCC(N2Cc3c(CN4CC5CC(C4)N5c4cccc(Cl)c4Cl)cccc3C2=S)C(=O)N1 (stereo not drawn)	Human multiple myeloma cell (MM.1S)	la7
O=C1CCC(N2Cc3c(CN4C[C@H]5C[C@@H]4CN5c4cccc(Cl)c4Cl)cccc3C2=S)C(=O)N1 (stereo in doubt)	Human multiple myeloma cell (MM.1S)	la7
O=C1CCC(N2Cc3cc(CN4CCC(c5nccc(Cl)c5Cl)CC4)ccc3C2=S)C(=O)N1 (stereo not drawn)	Human multiple myeloma cell (MM.1S)	la8
Cc1ccsc1C1CCN(Cc2ccc3c(c2)CN(C2CCC(=O)NC2=O)C3=S)CC1 (stereo not drawn)	Human multiple myeloma cell (MM.1S)	la7

* * *

# assayed target: human Cereblon WT GST-tagged protein (Homo sapiens)
# Construct: purchased CISBIO 64BDCRBNPEH
# protocol text: CRBN-binding affinity, HTRF (CEREBLON BINDING kit)
# test parameters: read-out: Inhibition Rate at 0.5 µM (%)
Item-by-item account of inhibition at 0.5 µM

compound	inhibition at 0.5 µM
CC(C)c1cc2c(C3=CCN(Cc4cccc5c4CN(C4CCC(=O)NC4=O)C5=S)CC3)ncnc2s1 (centres unmarked)	40 to 53%
O=C1CCC(N2Cc3cc(CN4CCN(c5c(F)c(F)nc(F)c5F)CC4)ccc3C2=S)C(=O)N1 (centres unmarked)	60 to 80%
O=C1CCC(N2Cc3cc(CN4CCN(Cc5ccccc5-c5ccc(Cl)cc5)CC4)ccc3C2=S)C(=O)N1 (centres unmarked)	20 to 30%
O=C1CCC(N2Cc3cc(CN4CCN(c5ccc(Cl)nn5)CC4)ccc3C2=S)C(=O)N1 (centres unmarked)	60 to 80%
O=C1CCC(N2Cc3cc(CN4C5CC4CN(C(c4ccccc4)c4ccccc4)C5)ccc3C2=S)C(=O)N1 (centres unmarked)	53 to 60%
O=C1CCC(N2Cc3c(CN4CCN(c5ncnc6sc7c(c56)CCCC7)CC4)cccc3C2=S)C(=O)N1 (centres unmarked)	40 to 53%
O=C1CCC(N2Cc3cc(CN4C5CCC4CN(c4cccc(Cl)c4Cl)C5)ccc3C2=S)C(=O)N1 (centres unmarked)	40 to 53%
O=C1CCC(N2Cc3c(CN4CCN(c5ncccc5C(F)(F)F)CC4)cccc3C2=S)C(=O)N1 (centres unmarked)	53 to 60%
O=C1CCC(N2Cc3cc(CN4CC=C(c5ncnc6sccc56)CC4)ccc3C2=S)C(=O)N1 (centres unmarked)	80 to 100%
O=C1CCC(N2Cc3cc(CN4CCN(c5cccc(F)c5F)CC4)ccc3C2=S)C(=O)N1 (centres unmarked)	60 to 80%
O=C1CCC(N2Cc3cc(CN4CCN(c5ccncc5Cl)CC4)ccc3C2=S)C(=O)N1 (centres unmarked)	60 to 80%
O=C1CCC(N2Cc3cc(CN4CCC(c5n[nH]c6cc(F)ccc56)CC4)ccc3C2=S)C(=O)N1 (centres unmarked)	80 to 100%
Cc1cc(N2CCN(Cc3cccc4c3CN(C3CCC(=O)NC3=O)C4=S)CC2)cc(C)n1 (centres unmarked)	53 to 60%
O=C1CCC(N2Cc3c(CN4CCN(c5ccc(F)cc5)CC4)cccc3C2=S)C(=O)N1 (centres unmarked)	40 to 53%
O=C1CCC(N2Cc3cc(CN4CCN(c5ccccc5)CC4)ccc3C2=S)C(=O)N1 (centres unmarked)	60 to 80%
O=C1CCC(N2Cc3cc(CN4CCC(c5ccccc5F)CC4)ccc3C2=S)C(=O)N1 (centres unmarked)	53 to 60%
O=C1CCC(N2Cc3c(CN4CC=C(c5ncnc6scc(-c7ccccc7)c56)CC4)cccc3C2=S)C(=O)N1 (centres unmarked)	60 to 80%
O=C1CCC(N2Cc3c(CN4CCN(c5cc(Cl)ccn5)CC4)cccc3C2=S)C(=O)N1 (centres unmarked)	60 to 80%
O=C1CCC(N2Cc3cc(CN4CC=C(c5ncnc6sc(-c7ccccc7)cc56)CC4)ccc3C2=S)C(=O)N1 (centres unmarked)	60 to 80%
O=C1CCC(N2Cc3cc(CN4CCC(c5ncc6ccsc6n5)CC4)ccc3C2=S)C(=O)N1 (centres unmarked)	60 to 80%
O=C1CCC(N2Cc3c(CN4CCC(c5ccc(Cl)cc5)CC4)cccc3C2=S)C(=O)N1 (centres unmarked)	30 to 40%
O=C1CCC(N2Cc3cc(CN4CCN(c5cccnn5)CC4)ccc3C2=S)C(=O)N1 (centres unmarked)	60 to 80%
O=C1CCC(N2Cc3cc(CN4CCN(c5ncccc5F)CC4)ccc3C2=S)C(=O)N1 (centres unmarked)	60 to 80%
Cc1cc(C2CCN(Cc3cccc4c3CN(C3CCC(=O)NC3=O)C4=S)CC2)cs1 (centres unmarked)	40 to 53%
CC1(C)CCC(CN2CC3CC(C2)N3Cc2ccc3c(c2)CN(C2CCC(=O)NC2=O)C3=S)=C(c2ccc(Cl)cc2)C1 (centres unmarked)	53 to 60%
O=C1CCC(N2Cc3c(CN4CC=C(c5cccc6c(F)cccc56)CC4)cccc3C2=S)C(=O)N1 (centres unmarked)	30 to 40%
O=C1CCC(N2Cc3cc(CN4CCN(c5c[nH]c6ncccc56)CC4)ccc3C2=S)C(=O)N1 (centres unmarked)	53 to 60%
O=C1CCC(N2Cc3c(CN4CCN(c5ccnc(F)c5F)CC4)cccc3C2=S)C(=O)N1 (centres unmarked)	60 to 80%
O=C1CCC(N2Cc3cc(CN4CCN(c5ccc(Br)cc5)CC4)ccc3C2=S)C(=O)N1 (centres unmarked)	53 to 60%
Cc1nc(N2CCN(Cc3ccc4c(c3)CN(C3CCC(=O)NC3=O)C4=S)CC2)c2c3c(sc2n1)CCCC3 (centres unmarked)	53 to 60%
O=C1CCC(N2Cc3c(CN4CCn5c(nnc5C(F)(F)F)C4)cccc3C2=S)C(=O)N1 (centres unmarked)	40 to 53%
O=C1CCC(N2Cc3cc(CN4CCN(c5cc(F)cc(F)c5)CC4)ccc3C2=S)C(=O)N1 (centres unmarked)	53 to 60%
